meta.source: ChEMBL document CHEMBL4304837

A collection of compounds and their measured Fu
# assayText: Protein binding in mouse serum assessed as unbound fraction measured up to 5 hrs by LC-MS/MS analysis relative to control
# Format: ADME, cell-free
Entry rule: numbers only, all in %.

GET /value?item= CCc1cc(NC(=O)c2nn(C3CCN(C(=O)NC(C)(C)C)CC3)c3ccccc23)ccc1-c1n[nH]c(=O)cc1C &field=Fu returns 0.9

GET /value?item= COc1ccc2c(C(=O)Nc3ccc(NC(=O)c4nn(C5CCN(C(=O)CC(C)(C)C#N)CC5)c5ccc(F)cc45)cc3Cl)cnn2c1 &field=Fu returns 0.3

GET /value?item= CCc1cc(NC(=O)c2nn(C3CCN(C(=O)NC(C)(C)C)CC3)c3ccccc23)ccc1-c1n[nH]c(=O)c(C)c1C &field=Fu returns 1

---

# assayText: Metabolic stability in mouse liver microsomes assessed as compound remaining at 0.5 uM measured after 10 mins in presence of NADPH by LC-MS/MS analysis
# Format: ADME, Microsome
# conditionSummary: read-out: Stability
A collection of molecules and their measured remaining at 10 min, 0.5 µM
Entry rule: numbers only, all in %.

As a guide, the following entries are already answered.
{"sampleSmiles": "Cc1cc(NC(=O)c2nn(C3CCN(C(=O)NC(C)(C)C)CC3)c3ccccc23)ccc1NC(=O)c1cnn2ccccc12", "recordedNumber": 10}
{"sampleSmiles": "COc1ccc2c(C(=O)Nc3ccc(NC(=O)c4nn(C5CCN(C(=O)CC(C)(C)C#N)CC5)c5ccc(F)cc45)cc3Cl)cnn2c1", "recordedNumber": 100}
{"sampleSmiles": "CC(C)(C)NC(=O)N1CCC(n2nc(C(=O)Nc3ccc(-c4ccc(=O)[nH]n4)c(Cl)c3)c3ccccc32)CC1", "recordedNumber": 15}
{"sampleSmiles": "Cc1cc(=O)[nH]nc1-c1ccc(NC(=O)c2nn(C3CCN(C(=O)NC(C)(C)C)CC3)c3ccccc23)cc1Cl", "recordedNumber": 9}
{"sampleSmiles": "Cc1cc(NC(=O)c2nn(C3CCN(C(=O)CC(C)(C)C#N)CC3)c3ccccc23)ccc1NC(=O)c1cnn2ccccc12", "recordedNumber": 9}

GET /value?item= CC(C)(C)NC(=O)N1CCC(n2nc(C(=O)Nc3ccc(NC(=O)c4cnn5ccccc45)cc3)c3ccccc32)CC1 &field=remaining at 10 min, 0.5 µM returns 21

GET /value?item= CC(C)(C)NC(=O)N1CC(Cn2nc(C(=O)Nc3ccc(-c4ccc(=O)[nH]n4)c(Cl)c3)c3ccccc32)C1 &field=remaining at 10 min, 0.5 µM returns 33

GET /value?item= CC(C)(C)NC(=O)N1CCC(n2nc(C(=O)Nc3ccc(NC(=O)c4cnn5ccccc45)c(Cl)c3)c3ccccc32)CC1 &field=remaining at 10 min, 0.5 µM returns 24

---

A collection of molecules and their measured Fu
# assayText: Protein binding in human serum assessed as unbound fraction measured up to 5 hrs by LC-MS/MS analysis relative to control
# Assay type: ADME, cell-free
Entry rule: numbers only, all in %.

GET /value?item= COc1ccc2c(C(=O)Nc3ccc(NC(=O)c4nn(C5CCN(C(=O)NC(C)(C)C)CC5)c5ccc(F)cc45)cc3Cl)cnn2c1 &field=Fu returns 0.4

GET /value?item= CCc1cc(NC(=O)c2nn(C3CCN(C(=O)NC(C)(C)C)CC3)c3ccccc23)ccc1-c1n[nH]c(=O)cc1C &field=Fu returns 0.4

GET /value?item= CCc1cc(NC(=O)c2nn(C3CCN(C(=O)NC(C)(C)C)CC3)c3ccccc23)ccc1-c1n[nH]c(=O)c(C)c1C &field=Fu returns 0.5

---

A collection of molecules and their measured remaining at 10 min, 0.5 µM
# assayText: Metabolic stability in human liver microsomes assessed as compound remaining at 0.5 uM measured after 10 mins in presence of NADPH by LC-MS/MS analysis
# Type: ADME, Microsome
# conditionSummary: read-out: Stability
Entry rule: numbers only, all in %.

GET /value?item= COc1ccc2c(C(=O)Nc3ccc(NC(=O)c4nn(C5CCN(C(=O)NC(C)(C)C)CC5)c5ccc(F)cc45)cc3Cl)cnn2c1 &field=remaining at 10 min, 0.5 µM returns 85

GET /value?item= Cc1cc(NC(=O)c2nn(C3CCN(C(=O)CC(C)(C)C#N)CC3)c3ccccc23)ccc1NC(=O)c1cnn2ccccc12 &field=remaining at 10 min, 0.5 µM returns 85

GET /value?item= CC(C)(C)NC(=O)N1CC(Cn2nc(C(=O)Nc3ccc(-c4ccc(=O)[nH]n4)c(Cl)c3)c3ccccc32)C1 &field=remaining at 10 min, 0.5 µM returns 2

GET /value?item= CC(C)(C)NC(=O)N1CCC(n2nc(C(=O)Nc3ccc(-c4ccc(=O)[nH]n4)c(Cl)c3)c3ccccc32)CC1 &field=remaining at 10 min, 0.5 µM returns 65

---

# assayText: AUC in C57BL/6 mouse at 100 mg/kg, po
# Type: ADME, organism-based
# conditionSummary: in vivo
A collection of molecules and their measured AUC
Entry rule: numbers only, all in µM·h.

{"sampleSmiles": "COc1ccc2c(C(=O)Nc3ccc(NC(=O)c4nn(C5CCN(C(=O)CC(C)(C)C#N)CC5)c5ccc(F)cc45)cc3Cl)cnn2c1", "unitsLabel": "µM·h", "AUC": 222}

Field: next molecule
GET /value?item= CCc1cc(NC(=O)c2nn(C3CCN(C(=O)NC(C)(C)C)CC3)c3ccccc23)ccc1-c1n[nH]c(=O)cc1C &field=AUC returns 51.5

---

# assayText: Half life in C57BL/6 mouse at 100 mg/kg, po
# Type: ADME, organism-based
# conditionSummary: in vivo
valueKind: half-life
Field: value (include unit after the number)

{"sampleSmiles": "CCc1cc(NC(=O)c2nn(C3CCN(C(=O)NC(C)(C)C)CC3)c3ccccc23)ccc1-c1n[nH]c(=O)cc1C", "half-life": "114 min"}

GET /value?item= COc1ccc2c(C(=O)Nc3ccc(NC(=O)c4nn(C5CCN(C(=O)CC(C)(C)C#N)CC5)c5ccc(F)cc45)cc3Cl)cnn2c1 &field=half-life returns 318 min

---

# targetOrSystem: Tyrosine-protein kinase ZAP-70 (Homo sapiens) (UniProt P43403)
# Sequence (whole entry): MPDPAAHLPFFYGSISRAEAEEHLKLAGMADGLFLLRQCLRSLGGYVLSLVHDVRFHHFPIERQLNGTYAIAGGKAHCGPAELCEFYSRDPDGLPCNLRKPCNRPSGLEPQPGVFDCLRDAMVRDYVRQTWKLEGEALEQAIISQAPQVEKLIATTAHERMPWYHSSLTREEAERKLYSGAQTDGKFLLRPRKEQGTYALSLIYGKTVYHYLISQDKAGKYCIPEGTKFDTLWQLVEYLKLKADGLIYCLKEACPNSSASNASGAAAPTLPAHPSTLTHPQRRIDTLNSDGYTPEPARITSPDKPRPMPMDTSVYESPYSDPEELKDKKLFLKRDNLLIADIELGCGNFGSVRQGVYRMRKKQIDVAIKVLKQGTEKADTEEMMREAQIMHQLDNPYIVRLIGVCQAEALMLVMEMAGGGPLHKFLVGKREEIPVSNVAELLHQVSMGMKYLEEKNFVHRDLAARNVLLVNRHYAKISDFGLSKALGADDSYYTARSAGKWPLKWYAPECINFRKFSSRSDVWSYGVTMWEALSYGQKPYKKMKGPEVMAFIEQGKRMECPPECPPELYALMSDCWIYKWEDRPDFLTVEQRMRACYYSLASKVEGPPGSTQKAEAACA
# assayText: Effect on ZAP70 phosphorylation in human Jurkat cells pre-incubated for 30 mins followed by anti-CD3/CD28 stimulation measured after 10 mins relative to control
# Type: cell-based
valueKind: Emax (%)
Entry rule: numbers only, all in %.

{"sampleSmiles": "CC(C)(C)NC(=O)N1CCC(n2nc(C(=O)Nc3ccc(-c4ccc(=O)[nH]n4)c(Cl)c3)c3ccccc32)CC1", "unitsLabel": "%", "Emax": 180}
{"sampleSmiles": "CC(C)(C)NC(=O)N1CC(Cn2nc(C(=O)Nc3ccc(-c4ccc(=O)[nH]n4)c(Cl)c3)c3ccccc32)C1", "unitsLabel": "%", "Emax": 73}
{"sampleSmiles": "CC(C)(C)NC(=O)N1CCC(n2nc(C(=O)Nc3ccc(NC(=O)c4cnn5ccccc45)cc3)c3ccccc32)CC1", "unitsLabel": "%", "Emax": 240}

Field: next molecule
GET /value?item= CC(C)(C)NC(=O)N1CCC(n2nc(C(=O)Nc3ccc(NC(=O)c4cnn5ccccc45)c(Cl)c3)c3ccccc32)CC1 &field=Emax returns 250

---

A collection of compounds and their measured Emax
# targetOrSystem: Tyrosine-protein kinase ZAP-70 (Homo sapiens)
# assayText: Effect on ZAP70 phosphorylation in human Jurkat cells pre-incubated for 30 mins followed by anti-CD3/CD28 stimulation measured after 10 mins relative to control
# Type: cell-based
Field: value (include unit after the number)

{"sampleSmiles": "Cc1cc(=O)[nH]nc1-c1ccc(NC(=O)c2nn(C3CCN(C(=O)NC(C)(C)C)CC3)c3ccccc23)cc1Cl", "result": "350%"}
{"sampleSmiles": "Cc1cc(NC(=O)c2nn(C3CCN(C(=O)CC(C)(C)C#N)CC3)c3ccccc23)ccc1NC(=O)c1cnn2ccccc12", "result": "370%"}
{"sampleSmiles": "CCc1cc(NC(=O)c2nn(C3CCN(C(=O)NC(C)(C)C)CC3)c3ccccc23)ccc1-c1cc(C)c(=O)[nH]n1", "result": "280%"}

Field: next compound
Entry CCc1cc(NC(=O)c2nn(C3CCN(C(=O)NC(C)(C)C)CC3)c3ccccc23)ccc1-c1n[nH]c(=O)c(C)c1C ; assay system Tyrosine-protein kinase ZAP-70 (Homo sapiens); Emax recorded at 270%
